Values were extracted from the supplement of paper PMC11865577.

# Tested on: TO-3-N3 (biotin conjugate)
# ASSAY_METHOD_TEXT: pull-down binding Z-score (relative to library population); higher = stronger binding
# COND: RNA library: Library-2
MEASURED_PARAMETER: pull-down binding Z-score

{"columns": ["SEQUENCE_CODE", "MEASURED_PARAMETER", "ENDPOINT_RESULT"],
 "data": [
  ["CACACGCUUUAUUUGUGCCGUUUG [hsa-mir-758]", "pull-down binding Z-score", -0.0281],
  ["GUUGUCUUGAAAACUGGUGAUUUACAACCAUUAGAACAACCUACUAGUGAAGCUGUUGAAGCUCCAUUGGUUGGUACACCAGUUUGUAUUAAC", "pull-down binding Z-score", -0.52],
  ["AGAACAUUCGUUCACUUUCCU [hsa-mir-6747]", "pull-down binding Z-score", -0.352],
  ["UGGAGCCAGGGGGCCCAGGUCUACAGCUUCUCCCCGCUCCC [hsa-mir-6752]", "pull-down binding Z-score", -0.138],
  ["GGAGGCCCCGCCCUGCUGCCGACCCUGUGGAGCGGAGGGUGAAGCCUCC [hsa-mir-3180-5]", "pull-down binding Z-score", 0.326],
  ["UGCUCUGGUGACUGAGGACCGCCAGGCA [hsa-mir-4763]", "pull-down binding Z-score", -0.245],
  ["UUUUUUUCGCUUUAUUUGUGACGAAAC [hsa-mir-543]", "pull-down binding Z-score", -0.674],
  ["UGUCACAUCAAUCUGACA", "pull-down binding Z-score", -0.221],
  ["CAACUACUCAGGAGGCUG [hsa-mir-566]", "pull-down binding Z-score", -0.196],
  ["AUCACUAGGUUUCAAACUUUACUUGCUUUACAUAGAAGUUAUUUGACUCCUGGUGAU", "pull-down binding Z-score", -0.735],
  ["UGGACCUCAGGGAAGAGGCUG [hsa-mir-4673]", "pull-down binding Z-score", -0.608]
]}
